# melting point per entry

COc1c(Cl)cc(C(=O)Nc2ccc(F)cc2)c(Nc2ccccc2)c1Cl	220 °C
Cc1nc2c3ccccc3ccn2c1CN1CCN(CCO)CC1	115 to 117 °C
CC(C)(C)OC(=O)NC1CCCC2(CCCC2)NC1=O (stereo not given)	180 to 181 °C
CN(CC(O)(CO)c1ccccc1)S(=O)(=O)c1ccc(Cl)cc1 (stereo not given)	122 to 123 °C
CN(C)c1nc2cc(Cl)c(Cl)cc2n1C1CC(CO)C(O)C1O (stereo not given)	190 to 193 °C
COc1cc2c(cc1Nc1ncc(Cl)c(Nc3ccccc3OC)n1)CCN(C(=O)CN(C)C)CC2	76 to 99 °C
COc1cc(C)nc(NC(=O)NS(=O)(=O)N(C)S(C)(=O)=O)n1	118 to 120 °C
CC(=O)c1cccc2c(=O)c(C)c(-c3ccccc3)oc12	159 to 161 °C

Please give the measured melting point for this compound: Cn1c(Oc2ccc(-n3c4ncccc4n4ccnc34)cc2)nc2ccccc21 232 to 234 °C

Give its melting point value. Item: C#CCOC(=O)c1cc(Cl)c(OCC#C)c(OCC#C)c1 98 to 99 °C
